measured.target: T1, TNFR1 (Homo sapiens, UniProt P19438)
T1 chain: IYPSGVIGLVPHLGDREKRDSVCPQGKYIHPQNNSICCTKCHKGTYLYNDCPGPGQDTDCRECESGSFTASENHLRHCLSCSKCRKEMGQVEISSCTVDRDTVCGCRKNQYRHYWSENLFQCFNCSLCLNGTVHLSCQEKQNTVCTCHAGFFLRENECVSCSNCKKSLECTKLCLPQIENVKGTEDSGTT
procedure.text: yeast display SC50
reported.endpoint: apparent Kd (screen) (nM)
Report the value in nM with no unit label.

binder	observed.measurement
V60T (designed binder) MTLQELLREEALRRAEAEAFRYALELLAEKFPEQKEYLLDLAEEIESQIRSLSGVDVEDTRKFLDKEWAWVKELLAEHPAELAEVEAARAARLAELRAEVEAKVAA	0.539
E36H (designed binder) MTLQELLREEALRRAEAEAFRYALELLAEKFPEQKHYLLDLAEEIESQIRSLSGVDVEDVRKFLDKEWAWVKELLAEHPAELAEVEAARAARLAELRAEVEAKVAA	0.49
G54P (designed binder) MTLQELLREEALRRAEAEAFRYALELLAEKFPEQKEYLLDLAEEIESQIRSLSPVDVEDVRKFLDKEWAWVKELLAEHPAELAEVEAARAARLAELRAEVEAKVAA	12.5

Sample R13F (designed binder) MTLQELLREEALFRAEAEAFRYALELLAEKFPEQKEYLLDLAEEIESQIRSLSGVDVEDVRKFLDKEWAWVKELLAEHPAELAEVEAARAARLAELRAEVEAKVAA ; apparent Kd (screen) observed: 0.277
